Record form. Attribute: Inhibition. Fill in for each entry.
system: Klebsiella pneumoniae; settings: Concentration 32 ug.mL-1; ASSAY_TEST Inhibition of Bacterial Growth; detection method Absorption (OD600); MEDIA CAMHB; plate type 384well; NBS; CORNING #3640; time 18 hr
Description: Antibacterial activity against Klebsiella pneumoniae MDR ATCC 70063 (CO-ADD:GN_003); MIC in CAMBH media using NBS plates, by OD(600)
Results with a measured potency or affinity are listed apart.
Answers are plain numbers, in %.

Previously resolved entries follow.
> print(dat)
                                    compound  observed
 1                                Br.C#CCNCC      7.82
 2  CC(=O)Nc1n[nH]c2nc(N)c(C#N)c(-c3ccccc3)c12     17.23
 3        CC(C)(C)OC(=O)N[C@H]1CC[C@H](O)CC1      7.91
 4  COc1cccc(C2c3c(ccc4ccccc34)OC(=NBr)C2(Br)C#N)c1 (centres undefined)      33.1
 5  Cn1c(C(=O)N2CCOCC2)cc2cc(OCCCC3CCN(Cc4ccccc4)CC3)ccc21      2.68
 6  CC#CCN(Cc1ccccc1)c1nc(N)c(C#N)c(-c2ccccc2)c1C#N     -4.62
 7      Cc1nn(-c2ccccc2)c2ncnc(Nc3ccccc3)c12     14.62
 8  Cn1ccnc1C1C2=C(CC(C)(C)CC2=O)Oc2nc3c(c(N)c21)CCC3 (centres undefined)      9.18
 9  COc1ccc(-c2cc(-c3cc4ccc(F)cc4nc3Cl)cc(=O)[nH]2)cc1    -16.09
10  C#CCNc1nc(NC2CCN(Cc3ccccc3)CC2)c(C#N)cc1C#N.Cl     -9.27

Provide reported Inhibition for each item, in the same order as listed.
1. COC1=C(C#N)CC(C)C(=O)N1 (centres undefined)
2. CSC1=NC(=Cc2cn(C)c3ccccc23)C(=O)N1C
3. CC(=O)C(=Cc1ccccc1)C(=O)O[C@H]1C[C@H](C)CC[C@H]1C(C)C
4. COc1nc2ccccc2cc1C=O
5. O=C1SC(SCc2ccccc2)=NC1=Cc1ccc2c(c1)OCO2

1: 6.94; 2: -7.62; 3: 13.75; 4: -3.66; 5: -9.46

Provide reported Inhibition for each item, in the same order as listed.
1. Cc1nc(NO)c2c(C)nn(-c3ccccc3)c2n1
2. COc1ccc(-c2cc(-c3cc4ccc(OC)cc4nc3Cl)cc(=O)[nH]2)cc1
3. N#Cc1cc(C#N)c(N2CCCC2)nc1N1CCCC1
4. COc1ccc(C2C(C#N)=C(N)Oc3[nH]nc(C)c32)cc1 (centres undefined)

1. 17.6
2. 4.32
3. 22.43
4. -10.09
